Test Details: Sedimentation equilibrium analytical ultracentrifugation (monomer-dimer equilibrium)
Type: physicochemical
Experimental Setup: monomer-dimer fit, 5° C., pH 7; read-out: KD (95% confidence limits)
pKd: −log10 of the molar value.
Experimental Readout: pKd

Substance: CGGEIRALKYEIARLKQ----KKRALEQKIAALEGGC [CSP-1r]
Experimental Readout: pKd
Quantitative Readout: 4.48
